- Test system: Cutworm
- protocolText: Test for the effect against cutworm on beet, drench, number of injured hills per 100 hills
- Type: in vivo
- conditionDetails: 15 g ai/10a
measurementKind: Number of injured hills per 100 hills, After 90 days
Just the number, please, no unit attached.

These solved cases illustrate the format of a correct answer.
Lookup: Value lookup for Number of injured hills per 100 hills, After 90 days; key = `CC(C)NC(=O)c1c(I)cccc1C(=O)Nc1ccc(C(F)(F)F)cc1Cl`
Found: 6

Lookup: Value lookup for Number of injured hills per 100 hills, After 90 days; key = `Cc1cc(C(F)(F)F)ccc1NC(=O)c1cccc(I)c1C(=O)NC(C)C`
Found: 9

Lookup: Value lookup for Number of injured hills per 100 hills, After 90 days; key = `Cc1cc(OC(F)(F)F)ccc1NC(=O)c1cccc(Cl)c1C(=O)NC(C)C`
Found: 7

Lookup: Value lookup for Number of injured hills per 100 hills, After 90 days; key = `Cc1cc(C(F)(F)C(F)(F)C(F)(F)F)ccc1NC(=O)c1cccc(I)c1C(=O)NC(C)C`
Found: 8

More entries:
Lookup: Value lookup for Number of injured hills per 100 hills, After 90 days; key = `Cc1cc(C(F)(F)C(F)(F)F)ccc1NC(=O)c1cccc(Cl)c1C(=O)NC(C)C`
Found: 8

Lookup: Value lookup for Number of injured hills per 100 hills, After 90 days; key = `Cc1cc(C(F)(F)C(F)(F)F)ccc1NC(=O)c1cccc(I)c1C(=O)NC(C)C`
Found: 7

---

- Test system: Diamondback Moth (Plutella xyloxtella)
- protocolText: Control of diamondback moth on cabbage by soil treatment, number of parasitic insects
- Format: in vivo
- conditionDetails: 5 mg ai/hill, true leaf extraction season treatment, 21 days after transplanting
// reported Number of parasitic insects per 30 hills, Diamondback moth for each item listed
Just the number, please, no unit attached.

These solved cases illustrate the format of a correct answer.
Lookup: What reported Number of parasitic insects per 30 hills, Diamondback moth corresponds to Cc1cc(C(F)(F)C(F)(F)F)ccc1NC(=O)c1cccc(Cl)c1C(=O)NC(C)C [Compound 19] on Diamondback Moth (Plutella xyloxtella)?
Found: 2

Lookup: What reported Number of parasitic insects per 30 hills, Diamondback moth corresponds to Cc1cc(C(F)(F)C(F)(F)F)ccc1NC(=O)c1cccc(I)c1C(=O)NC(C)C [Compound 41] on Diamondback Moth (Plutella xyloxtella)?
Found: 2

Lookup: What reported Number of parasitic insects per 30 hills, Diamondback moth corresponds to Cc1cc(OC(F)(F)F)ccc1NC(=O)c1cccc(Cl)c1C(=O)NC(C)C [Compound 20] on Diamondback Moth (Plutella xyloxtella)?
Found: 2

Lookup: What reported Number of parasitic insects per 30 hills, Diamondback moth corresponds to Cc1cc(C(F)(F)F)ccc1NC(=O)c1cccc(I)c1C(=O)NC(C)C [Compound 40] on Diamondback Moth (Plutella xyloxtella)?
Found: 1

Lookup: What reported Number of parasitic insects per 30 hills, Diamondback moth corresponds to Cc1cc(C(F)(F)C(F)(F)C(F)(F)F)ccc1NC(=O)c1cccc(I)c1C(=O)NC(C)C [Compound 42] on Diamondback Moth (Plutella xyloxtella)?
Found: 2

// moving on: another record for Number of parasitic insects per 30 hills, Diamondback moth
Lookup: What reported Number of parasitic insects per 30 hills, Diamondback moth corresponds to CC(C)NC(=O)c1c(I)cccc1C(=O)Nc1ccc(C(F)(F)F)cc1Cl [Compound 39] on Diamondback Moth (Plutella xyloxtella)?
Found: 2
